experimental_system: Cytochrome P450 2C19 (Homo sapiens) (UniProt P33261)
Sequence (P33261 whole entry, looked up): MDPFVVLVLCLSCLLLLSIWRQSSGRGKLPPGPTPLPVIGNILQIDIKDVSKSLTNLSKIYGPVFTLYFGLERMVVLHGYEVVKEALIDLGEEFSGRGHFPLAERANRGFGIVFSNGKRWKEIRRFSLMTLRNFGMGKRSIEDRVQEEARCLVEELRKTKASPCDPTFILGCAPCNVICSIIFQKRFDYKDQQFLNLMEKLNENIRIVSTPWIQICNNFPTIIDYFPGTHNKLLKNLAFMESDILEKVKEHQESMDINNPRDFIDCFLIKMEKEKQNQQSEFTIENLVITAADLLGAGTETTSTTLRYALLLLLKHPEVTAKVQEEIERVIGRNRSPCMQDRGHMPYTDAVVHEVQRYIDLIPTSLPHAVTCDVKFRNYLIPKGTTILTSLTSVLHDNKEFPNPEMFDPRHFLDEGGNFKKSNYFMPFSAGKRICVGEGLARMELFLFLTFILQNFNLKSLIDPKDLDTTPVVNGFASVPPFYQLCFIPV
experiment_summary: Cytochrome P450 Family 2 Subfamily C Member 19 (CYP2C19) small molecule antagonists: luciferase reporter qHTS assay (AID 1671197); note: nearly all actives have a fitted effect of over 65% in size
study_conditions: P450-Glo CYP2C19 enzyme, luciferin luminescence, 1 h; series mostly up to 115 µM
Records with an inconclusive call do not appear. Active and inactive are the calls of the source. Calls come from the whole dose curve; as a rule, active = well fitted inhibition curve with a large enough effect in the repeat runs; inconclusive = weak or mixed curves; inactive = no such curve, though single readings can be large or run the other way.
The reply should be one of these categories: 1.0 (active), 0.0 (inactive)

The following molecules have reported results that may help.
- molecule: "O=C(O)C(Cl)(Cl)Br"
  cat: 0.0
- molecule: "OCCSSCCO"
  cat: 1.0
- molecule: "CCCCC(CC)CO[N+](=O)[O-] (stereo not drawn)"
  cat: 0.0
- molecule: "CC[N+]1(C)CCCC(OC(=O)C(O)(c2ccccc2)c2ccccc2)C1 (stereo not drawn)"
  cat: 0.0
- molecule: "C=C(Cl)Cl"
  cat: 1.0
- molecule: "CC(C)(C)OOC(C)(C)CCC(C)(C)OOC(C)(C)C"
  cat: 0.0

Task: Which outcome was entered for the molecule COc1ccc(C(O)(c2cncnc2)C2CC2)cc1 (stereo not drawn) in this test?
Output: 1.0

Task: Please state the recorded outcome for this molecule: `FC(Cl)(Cl)C(F)(Cl)Cl`
Output: 0.0

Task: Any idea what this test logged for `N#CC(C#N)=C(C#N)C#N` ?
Output: 1.0
